System: epoxide hydrolase from Agrobacterium radiobacter AD1, Tyr215Phe mutant
ASSAY: Stereoselective hydrolysis (kinetic resolution) of styrene oxides with Tyr215Phe mutant
Format: biochemical
CONDITION_LABEL: substrate 5 mM, Tris buffer 50 mM pH9, 30°C, 10% DMSO for meta- and para-chlorostyrene oxide, chiral GLC
READOUT: E-value

Clc1ccc(C2CO2)cc1 (stereo not shown) [P-Cl-SO, para-chlorostyrene oxide]: 130

Query string: Tell me its E-value given O=[N+]([O-])c1ccc(C2CO2)cc1 (racemic) as the entry.
Result string: > 200

Query string: Tell me its E-value given Clc1cccc(C2CO2)c1 (stereo not shown) [M-Cl-SO, meta-chlorostyrene oxide] as the entry.
Result string: 13

Query string: Tell me its E-value given c1ccc(C2CO2)cc1 (racemic) [SO, styrene oxide] as the entry.
Result string: 30
